molecular target: T1, Human MMP-9 catalytic domain (BIOMOL, SE-244) (human, UniProt P14780 107-457, limits assumed); assay: Ki,app, enzyme inhibition assay (fluorogenic peptide substrate), medium-scale sFab
T1 construct: domain: catalytic domain; also called Cat-huMMP-9; cat-huMMP-9
T1 sequence (P14780 107-457 limits assumed): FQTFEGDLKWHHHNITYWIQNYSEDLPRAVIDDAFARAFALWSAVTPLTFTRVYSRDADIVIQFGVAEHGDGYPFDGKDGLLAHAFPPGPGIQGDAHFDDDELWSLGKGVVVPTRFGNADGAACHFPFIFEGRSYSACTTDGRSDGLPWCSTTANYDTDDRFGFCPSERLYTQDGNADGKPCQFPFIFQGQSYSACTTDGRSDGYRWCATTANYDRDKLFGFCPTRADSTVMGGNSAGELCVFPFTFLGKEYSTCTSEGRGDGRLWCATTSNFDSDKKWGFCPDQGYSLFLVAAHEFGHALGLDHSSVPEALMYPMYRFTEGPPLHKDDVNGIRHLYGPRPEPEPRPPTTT
quantity.name: Ki (nM)
State the answer as a number, implicitly in nM.

>>> recorded_number("M0273-A11 (Fab, V domains shown, sFab; variable domains only; also called M273-A11) VH: EVQLLESGGGLVQPGGSLRLSCAASGFTFSRYDMWWVRQAPGKGLEWVSVISPSGGATFYADSVKGRFTISRDNSKNTLYLQMNSLRAEDTAVYYCAKDRAYGDYVGWNGFDYWGQGTLVTVSS VL: DIQMTQSPATLSLSPGERATLSCRASQSISSFLAWYQQKPGQAPRLLIYDASYRATGIPARFSGSGSGTDFTLTISSLEPEDYAVYYCQQRGNWPITFGQGTRLEIK")
0.8
>>> recorded_number("M0307-F04 (Fab, V domains shown, sFab; variable domains only; also called M307-F04) VH: EVQLLESGGGLVQPGGSLRLSCAASGFTFSLYDMWWVRQAPGKGLEWVSVIYSSGGYTGYADSVKGRFTISRDNSKNTLYLQMNSLRAEDTAVYYCAKDRAYGDYVGWNGFDYWGQGTLVTVSS VL: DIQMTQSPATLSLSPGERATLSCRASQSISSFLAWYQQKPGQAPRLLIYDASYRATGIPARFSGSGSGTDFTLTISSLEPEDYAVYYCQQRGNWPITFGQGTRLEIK")
0.8

Okay, now this binder:
Query string: Param item = M0301-D12 (Fab, V domains shown, sFab; variable domains only; also called M301-D12) VH: EVQLLESGGGLVQPGGSLRLSCAASGFTFSMYDMWWVRQAPGKGLEWVSVIYSSGGYTSYADSVKGRFTISRDNSKNTLYLQMNSLRAEDTAVYYCAKDRAYGDYVGWNGFDYWGQGTLVTVSS VL: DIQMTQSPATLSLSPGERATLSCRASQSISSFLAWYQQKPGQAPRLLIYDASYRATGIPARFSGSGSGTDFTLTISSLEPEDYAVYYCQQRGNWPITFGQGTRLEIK ; retrieve measured Ki.
Result string: 1.7
